experiment: in vivo; details: BALB/c, mouse, 100 mg/kg, ELF penetration ratio (based on total plasma AUC)
property: Kp

>  <molecule>
COc1ncnc(Cn2cc(C(=O)NCCF)c3ncccc32)c1C [Compound 3]

>  <property>
Kp

>  <experimental value>
0.6 to 1.97

$$$$

====

assay: in vivo; details: BALB/c, mouse, po, 100 mg/kg, AUC0-∞, ELF

>  <smiles input>
COc1ncnc(Cn2cc(C(=O)NCCF)c3ncccc32)c1C

>  <result unit>
µM·h

>  <AUC(0-inf)>
713

$$$$

====

test: in vivo; details: Wistar, rat, in vivo, iv, 2 mg/kg

>  <smiles input>
COc1ncnc(Cn2cc(C(=O)NCCO)c3ncc(C)cc32)c1C

>  <Vd>
7.34 L/kg

$$$$
